Where do the numbers come from? From patent US12297235B2.

assay type: biochemical, human; conditions: human; 0.77 mM peptide in factor B-depleted serum; mean of triplicate; standardized to water (soluble) or DMSO (insoluble)
Square brackets hold non-standard residues; d marks the D form. Peptide text beside a SMILES is read from it. Sar = CNCC(=O)O
READOUT: hemolysis (%)
# output: bare number, implied unit %

Inquiry: Item CC[C@H](C)[C@H](NC(=O)[C@H](CC(C)C)NC(=O)[C@H](C)N)C(=O)N[C@@H](CC(C)C)C(=O)N[C@@H](CCC(=O)O)C(=O)N1CCC[C@H]1C(=O)N[C@H](C(=O)N[C@@H](CS)C(=O)N[C@@H](CS)C(=O)N(C)CC(=O)N[C@@H](CCC(=O)O)C(=O)N[C@@H](CCCNC(=N)N)C(=O)N[C@@H](C)C(=O)N[C@@H](C)C(=O)O)[C@@H](C)CC [PA-Q11Sar] (H-ALILEPICC[Sar]ERAA-OH; N-terminus and C-terminus assumed) has what recorded hemolysis?
Reply text: 3.02
